Where do the numbers come from? From paper PMC4336329.

- ASSAYED TARGET: human ether-à-go-go-related gene (hERG) potassium channel (human, UniProt Q12809)
- Sequence (Q12809 whole entry, looked up): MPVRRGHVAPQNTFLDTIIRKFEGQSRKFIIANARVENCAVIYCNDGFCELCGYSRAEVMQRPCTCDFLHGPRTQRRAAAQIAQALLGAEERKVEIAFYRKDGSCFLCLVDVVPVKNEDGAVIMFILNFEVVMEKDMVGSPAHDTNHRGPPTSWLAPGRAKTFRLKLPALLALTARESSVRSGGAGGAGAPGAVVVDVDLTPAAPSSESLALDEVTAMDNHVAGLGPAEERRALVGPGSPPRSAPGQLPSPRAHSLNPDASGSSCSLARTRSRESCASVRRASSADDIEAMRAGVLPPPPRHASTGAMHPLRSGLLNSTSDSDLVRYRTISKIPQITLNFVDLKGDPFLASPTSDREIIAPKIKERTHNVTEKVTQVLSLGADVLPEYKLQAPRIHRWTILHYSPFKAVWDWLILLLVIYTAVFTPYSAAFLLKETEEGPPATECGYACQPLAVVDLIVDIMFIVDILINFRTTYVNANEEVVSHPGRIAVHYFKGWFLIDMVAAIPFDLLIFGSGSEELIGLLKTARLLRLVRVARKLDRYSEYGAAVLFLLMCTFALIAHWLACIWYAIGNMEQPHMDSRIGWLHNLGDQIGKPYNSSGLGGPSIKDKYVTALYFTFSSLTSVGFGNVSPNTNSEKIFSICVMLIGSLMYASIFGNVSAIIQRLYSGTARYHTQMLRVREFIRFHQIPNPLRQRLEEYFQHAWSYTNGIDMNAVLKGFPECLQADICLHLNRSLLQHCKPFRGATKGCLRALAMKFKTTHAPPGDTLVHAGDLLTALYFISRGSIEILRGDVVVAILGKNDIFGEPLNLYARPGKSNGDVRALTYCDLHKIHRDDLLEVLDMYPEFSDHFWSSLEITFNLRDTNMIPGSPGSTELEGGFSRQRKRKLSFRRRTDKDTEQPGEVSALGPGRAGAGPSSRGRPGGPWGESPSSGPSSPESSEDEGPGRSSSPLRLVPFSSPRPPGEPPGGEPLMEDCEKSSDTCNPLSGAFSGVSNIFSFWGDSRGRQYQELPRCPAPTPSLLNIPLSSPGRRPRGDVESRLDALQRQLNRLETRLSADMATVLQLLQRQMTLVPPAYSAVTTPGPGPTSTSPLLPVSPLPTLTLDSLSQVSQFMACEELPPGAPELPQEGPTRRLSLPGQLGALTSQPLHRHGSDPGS
- EXPERIMENT NOTES: primary screen, population patch clamp on CHO cells stably expressing hERG; higher = less effect of the substance
In all, about 310,000 compounds went through this assay and about 14,000 (4.5%) showed an effect of 50% or more. Effects have a minus sign here. The entries come from a sample that favours strong results as a whole.
Some molecules, each annotated with its measured hERG current change (%, negative = inhibition) at 10uM.
Express your answer in %, writing the number without its unit.

Dear colleague, I am looking for the recorded hERG current change (%, negative = inhibition) at 10uM of the following molecule: CCc1ccccc1NC(=O)c1ccc(-c2csc(C)n2)cc1
-12.4

###

- ASSAYED TARGET: human ether-à-go-go-related gene (hERG) potassium channel (human, UniProt Q12809)
- EXPERIMENT NOTES: primary screen, population patch clamp on CHO cells stably expressing hERG; higher = less effect of the substance
Among all 310,000 compounds or so, about 14,000 (4.5%) showed an effect of 50% or more. The effect is printed as a negative number. The sample holds strong results, similar compounds and a random draw of the others, so the mix is not that of the screen.
Given measured hERG current change (%, negative = inhibition) at 10uM, output YES if it is greater than or equal to -10% and NO if not.

hey, is hERG current change (%, negative = inhibition) at 10uM for this one >= -10%? O=C(N/C(=C/c1ccccc1Cl)C(=O)N1CCCC1)c1ccccc1
YES

Could you please find out whether O=C(N/C(=C\c1ccco1)C(=O)N1CCOCC1)c1ccc([N+](=O)[O-])cc1 has hERG current change (%, negative = inhibition) at 10uM that meets -10% or exceeds it?
NO

Could you verify whether the entry CN(Cc1ccccc1)Cc1nc2c(c(=O)n(C)c(=O)n2C)n1CCc1ccccc1 shows hERG current change (%, negative = inhibition) at 10uM of no less than -10%?
NO

# check: hERG current change (%, negative = inhibition) at 10uM of CCCc1cc(=O)oc2cc(OCC(=O)N3C[C@H]4C[C@@H](C3)c3cccc(=O)n3C4)c(Cl)cc12 is greater than or equal to -10%
NO

hERG current change (%, negative = inhibition) at 10uM >= -10% for O=C(N/C(=C\c1ccccc1Cl)C(=O)N1CCOCC1)c1ccc([N+](=O)[O-])cc1 ?
NO

Turning to the following compound.
Has CCOCCn1c(CN(Cc2ccccc2)Cc2ccccc2)nc2c1c(=O)n(C)c(=O)n2C a recorded hERG current change (%, negative = inhibition) at 10uM greater than or equal to -10%?
NO

###

// reported hERG current change (%, negative = inhibition) at 10uM for each item listed
- ASSAYED TARGET: human ether-à-go-go-related gene (hERG) potassium channel (human, UniProt Q12809)
- EXPERIMENT NOTES: primary screen, population patch clamp on CHO cells stably expressing hERG; higher = less effect of the substance
Screen size: about 310,000 compounds; about 14,000 (4.5%) showed an effect of 50% or more. Effects have a minus sign here. The list comes from a sample in which strong results are over-represented; it also holds close analogues and randomly drawn compounds.
Record the value in %, omitting the unit from your answer.

Known results for molecules:
Give its hERG current change (%, negative = inhibition) at 10uM value. Item: COc1cc2c(=O)n(CC3CCCO3)c(=O)n(CC(=O)Nc3ccccc3)c2cc1OC (stereo not shown)
-2.85

Using the record for CN(CCNC(=O)c1ccc(CS(=O)(=O)c2ccc(Br)cc2)o1)CCc1ccccc1 , report its hERG current change (%, negative = inhibition) at 10uM.
-77.5

Would you kindly share the measured hERG current change (%, negative = inhibition) at 10uM for CC(C)N(C)C(=O)CCc1nnc(CCc2c[nH]c3ccccc23)o1 ?
6.75

***
Consider the molecule Cc1nc2sc(C)c(C)c2c(=O)[nH]1 and give its measured hERG current change (%, negative = inhibition) at 10uM.
13.7

###

- ASSAYED TARGET: human ether-à-go-go-related gene (hERG) potassium channel (human, UniProt Q12809)
- EXPERIMENT NOTES: primary screen, population patch clamp on CHO cells stably expressing hERG; higher = less effect of the substance
The campaign covered roughly 310,000 compounds. About 14,000 (4.5%) showed an effect of 50% or more. The effect is printed as a negative number. Only a selection was taken, and strong results are over-represented in it overall.
METRIC: hERG current change (%, negative = inhibition) at 10uM
Answer shape: numeric part, then the unit.

Below: 5 molecules and their reported hERG current change (%, negative = inhibition) at 10uM.
// query hERG current change (%, negative = inhibition) at 10uM value for entry Cc1ccc(Nc2ccc(C(=O)O)cc2[N+](=O)[O-])cc1
15.1%

Reported hERG current change (%, negative = inhibition) at 10uM for Cc1ccccc1-c1nc(CN2CCC(C(=O)NC3CC3)CC2)c(C)o1 : what is it?
-33%

Fill blank: measured hERG current change (%, negative = inhibition) at 10uM of the molecule Cc1cccc(OS(=O)(=O)NC(=O)OCC2CCCN3CCCCC23)c1 (stereo not shown) is ____.
15.1%

Any idea what hERG current change (%, negative = inhibition) at 10uM was measured for Cc1cccc(NS(=O)(=O)c2cccc(C(=O)NCC(C)(C)N3CCOCC3)c2)c1 ?
4.99%

Dear colleague, I am looking for the recorded hERG current change (%, negative = inhibition) at 10uM of the following molecule: CCOc1ccc(NS(=O)(=O)c2ccc(C(=O)NCC3(N4CCCCC4)CCCCC3)cc2)cc1
-11%

New cases:
Param item = Cc1ccccc1-c1nc(CN2CCC(C(=O)NC3CCN(Cc4ccccc4)CC3)CC2)c(C)o1 ; retrieve measured hERG current change (%, negative = inhibition) at 10uM.
-43%

###

Reported hERG current change (%, negative = inhibition) at 10uM is given for each of the following molecules.
- ASSAYED TARGET: human ether-à-go-go-related gene (hERG) potassium channel (human)
- EXPERIMENT NOTES: primary screen, population patch clamp on CHO cells stably expressing hERG; higher = less effect of the substance
In all, about 310,000 compounds went through this assay and about 14,000 (4.5%) showed an effect of 50% or more. The effect is printed as a negative number. For the sample, strong results were picked, then their nearest neighbours and some compounds at random.
Numeric only. Scale: %

Some molecules with known hERG current change (%, negative = inhibition) at 10uM results, for comparison:
# returns recorded hERG current change (%, negative = inhibition) at 10uM (system: human ether-à-go-go-related gene (hERG) potassium channel (human)) for Cl.N=c1sccn1CC(=O)NC(c1ccccc1)c1ccccc1
-63.3

Param readout= hERG current change (%, negative = inhibition) at 10uM; system= human ether-à-go-go-related gene (hERG) potassium channel (human); entry= Cl.N=c1sccn1CC(=O)Nc1cccc2ccccc12 ; returns value.
2.9

Kindly state the measured hERG current change (%, negative = inhibition) at 10uM obtained for Cc1cc(C(=O)Nc2ccc3ccccc3c2)c(C)o1 with human ether-à-go-go-related gene (hERG) potassium channel (human).
6.68

Param readout = hERG current change (%, negative = inhibition) at 10uM; param system = human ether-à-go-go-related gene (hERG) potassium channel (human); param query = COc1ccccc1Oc1ccccc1[N+](=O)[O-] ; response: value;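 note: peak tail current of the secondary pulse compared with the same well before compound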
5.95

Here's the next entry for you.
Requested read-out hERG current change (%, negative = inhibition) at 10uM, target or system human ether-à-go-go-related gene (hERG) potassium channel (human), entry CCOc1cc(N2CCOCC2)c(OCC)cc1NC(=O)C1CC(=O)N(c2ccc(C)cc2)C1 (centres unmarked);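 note: peak tail current of the secondary pulse compared with the same well before compound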
-2.64

###

- ASSAYED TARGET: human ether-à-go-go-related gene (hERG) potassium channel (human, UniProt Q12809);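 note: peak tail current of the secondary pulse compared with the same well before compound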
- EXPERIMENT NOTES: primary screen, population patch clamp on CHO cells stably expressing hERG; higher = less effect of the substance
Screen size: about 310,000 compounds; about 14,000 (4.5%) showed an effect of 50% or more. Effects have a minus sign here. What follows is part of a selection rich in strong results, with near analogues and random picks from the rest.
METRIC: hERG current change (%, negative = inhibition) at 10uM
Field: value (include unit after the number)

Record request: hERG current change (%, negative = inhibition) at 10uM value, item NNC(=O)CSc1nc(-c2ccccc2)cn1-c1ccccc1
-0.037%

# get_value(readout='hERG current change (%, negative = inhibition) at 10uM', item= CCOCC(=O)Nc1cc([N+](=O)[O-])ccc1C )
-2.36%

Value lookup for hERG current change (%, negative = inhibition) at 10uM; key = Cc1ccc(NC(=O)C2CCN(S(=O)(=O)c3c(C)noc3/C=C/N(C)C)CC2)cc1
-5.19%

###

# Lookup of reported hERG current change (%, negative = inhibition) at 10uM keyed by entry
- ASSAYED TARGET: human ether-à-go-go-related gene (hERG) potassium channel (human);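 note: peak tail current of the secondary pulse compared with the same well before compound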
- EXPERIMENT NOTES: primary screen, population patch clamp on CHO cells stably expressing hERG; higher = less effect of the substance
Among all 310,000 compounds or so, about 14,000 (4.5%) showed an effect of 50% or more. Effects have a minus sign here. The full list was thinned out, with strong results kept by preference.
Numbers only; they are read as %.

// query hERG current change (%, negative = inhibition) at 10uM value for entry O=C(Nc1cc(S(=O)(=O)N2CCOCC2)ccc1N1CCOCC1)c1ccc(S(=O)(=O)N2CCCCC2)cc1
-1.72

Given the compound Cc1ccc(S(=O)(=O)N2CCN(C(=O)CCn3nc(C)c(C)c3C)CC2)cc1 , what is its reported hERG current change (%, negative = inhibition) at 10uM?
11.1

Quick one: hERG current change (%, negative = inhibition) at 10uM for O=C(C[n+]1ccccc1)Nc1c(Cl)cc(Cl)cc1Cl.[Cl-] ?
13.1

Reported hERG current change (%, negative = inhibition) at 10uM, compound C[C@H](NC(=O)c1ccccc1Cl)C(=O)OCC(=O)N1CCN(c2ccccc2)CC1 : ____
-9.59

Reported hERG current change (%, negative = inhibition) at 10uM, compound COc1ccc(Cl)c(NCCC(=O)O)c1 : ____
15.5

New cases:
Quick check: hERG current change (%, negative = inhibition) at 10uM of O=C(COc1ccccc1Cl)NC(=O)NC1CCCCC1 ?
5.11

Report hERG current change (%, negative = inhibition) at 10uM for COc1ccc(C2C(C#N)=C(SC)NC3=C2C(=O)CC(C)(C)C3)cc1 (stereo not drawn) please.
-15.4
